# TGI values compiled below
- Tested on: HCC-2998 colon
- EXPERIMENT: NCI tumour cell line growth inhibition, 48 h

{"columns": ["COMPOUND", "TGI"],
 "data": [
  ["CCOc1cn(C2OC(CO)C(O)C2O)c(=O)[nH]c1=O (centres undefined)", "> 100 µM"],
  ["Oc1ccc2c3c1OC1c4[nH]ncc4C[C@H]4[C@@H](C2)N(CC2CC2)CC[C@]314 (some centres undefined)", "> 100 µM"],
  ["CSc1ccc2c(cc1=O)[C@@H](NC(=O)c1ccc(Cl)cc1)CCc1cc(O)c(O)c(O)c1-2", "> 100 µM"],
  ["O=C(CCc1ccccc1)NS(=O)(=O)c1ccccc1", "> 100 µM"],
  ["C[Si](C)(C)c1ccc(-c2c3ccc(-c4cc(Br)cc(Br)c4)nc3nc3nc(-c4cc(Br)cc(Br)c4)ccc23)cc1", "> 100 µM"],
  ["CC(=O)CC/C=C(\\C)[C@H](O)[C@H](C)C(=O)O[C@H]1C[C@H](C)C=C2C=C[C@@]3(C)O[C@@H](O)CC(=O)[C@]3(C)[C@H]21", "1.96 µM"],
  ["CCOC(=O)CC[C@H](NC(=O)N[C@H](C)c1ccccc1)C(=O)OCC", "72.3 µM"],
  ["Cn1c2c(c3ccccc31)CCN(CCCCN1CCN(c3ccccc3)CC1)C2=O", "31.7 µM"],
  ["O=C(NCCC1CN(C(=O)OCc2ccccc2)c2ccccc21)OCc1ccccc1 (centres undefined)", "> 100 µM"]
]}

---

- System: SK-MEL-2 melanoma
- EXPERIMENT: NCI tumour cell line growth inhibition, 48 h
# TGI values compiled below
MEASURED_METRIC: TGI

{"columns": ["COMPOUND", "SYSTEM", "MEASUREMENT"],
 "data": [
  ["O=c1oc2ccccc2c(O)c1C(c1cnc2ccccc2c1)c1c(O)c2ccccc2oc1=O", "SK-MEL-2 melanoma", "> 100 µM"],
  ["O=C(Oc1c(Cl)cc(C2(c3cc(Cl)c(OC(=O)c4ccccc4)c(Cl)c3)CCCCC2)cc1Cl)c1ccccc1", "SK-MEL-2 melanoma", "23.9 µM"],
  ["CC(C)(C)c1ccc2c(c1)C#Cc1cc(C(C)(C)C)ccc1OCCCO2", "SK-MEL-2 melanoma", "> 100 µM"],
  ["CC1C(=O)CC(c2cccs2)N(N=O)C1c1cccs1 (centres undefined)", "SK-MEL-2 melanoma", "> 92.3 µM"],
  ["N#CC1=C(N)NC(=S)NC12Nc1ccccc1S2 (centres undefined)", "SK-MEL-2 melanoma", "> 100 µM"],
  ["C/C(N)=C/C(=O)c1[nH]c(C(=O)O)cc1C1CCN(Cc2ccccc2)C1=O (centres undefined)", "SK-MEL-2 melanoma", "77.6 µM"],
  ["N#CC(C#N)=C/C=C/c1c(Cl)cccc1Cl", "SK-MEL-2 melanoma", "3.47 µM"],
  ["CCCCCCCCCCCCCCCCCCNc1ccn(C2OC(CO)C(OP(=O)(O)OCC(O)COP(=O)(O)OCC3OC(n4cc(F)c(NCCCCCCCCCCCCCCCCCC)nc4=O)CC3O)C2O)c(=O)n1 (centres undefined)", "SK-MEL-2 melanoma", "> 50 µM"],
  ["Cn1c(=O)c2nc3c(=O)n(C)c(=O)n(CC(N)=O)c3nc2n(C)c1=O", "SK-MEL-2 melanoma", "> 100 µM"]
]}

Cited source: PubChem BioAssay (NCI)
